- EXPERIMENTAL_DETAILS: Binding affinity to LAR C1536S mutant (unknown origin) assessed as inhibition constant by Michaelis-Menten analysis
- Set-up: species or system Homo sapiens
MEASUREMENT_KIND: Ki (µM)
Lab book: enter the figure in µM, no units written.

Request: Would you kindly share the measured Ki for CC1(C)Cc2c(O)c(C=O)c3c(c2C1)C(=O)OC(O)C3 (stereo unspecified) ?
Result: 7
